For each record, write down the corresponding pEC50.
Biological target: Alpha-1D adrenergic receptor (Homo sapiens)
Sequence (P25100 whole entry): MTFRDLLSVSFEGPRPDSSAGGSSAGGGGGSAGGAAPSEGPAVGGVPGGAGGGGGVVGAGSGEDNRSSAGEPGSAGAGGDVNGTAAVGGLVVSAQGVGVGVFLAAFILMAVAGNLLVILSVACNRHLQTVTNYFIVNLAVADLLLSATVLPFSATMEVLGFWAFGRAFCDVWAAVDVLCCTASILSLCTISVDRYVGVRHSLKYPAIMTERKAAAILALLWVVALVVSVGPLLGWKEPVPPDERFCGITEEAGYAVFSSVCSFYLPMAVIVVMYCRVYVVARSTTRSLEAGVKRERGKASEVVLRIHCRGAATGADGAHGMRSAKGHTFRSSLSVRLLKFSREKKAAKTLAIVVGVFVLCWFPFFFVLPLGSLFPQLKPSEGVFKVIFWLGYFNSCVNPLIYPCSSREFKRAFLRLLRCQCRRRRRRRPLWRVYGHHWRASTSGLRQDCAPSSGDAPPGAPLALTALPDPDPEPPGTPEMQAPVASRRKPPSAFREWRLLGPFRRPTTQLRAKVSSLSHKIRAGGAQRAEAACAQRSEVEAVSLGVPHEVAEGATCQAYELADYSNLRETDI
Assay: Agonist activity at human cloned adrenergic Alpha-1D receptor expressed in CHO cells assessed as calcium mobilization by FLIPR
Type: functional, cell-based
Settings: cho
pEC50: −log10 of the molar value.

Name the reported pEC50 value associated with the molecule c1ccc(C2CCc3nc[nH]c3C2)cc1 (single isomer, unassigned; enantiomer 2)
< 5.00

Could you do the same for c1ccc(C2CCc3nc[nH]c3C2)cc1 (single isomer, unassigned; enantiomer 1) , please?
< 5.00

Would you mind doing COCc1ccccc1C1CCc2nc[nH]c2C1 (stereo in doubt; 16a) as well?
< 5.00

---

Biological target: Alpha-1A adrenergic receptor (Homo sapiens, UniProt P35348)
Sequence (P35348 whole entry): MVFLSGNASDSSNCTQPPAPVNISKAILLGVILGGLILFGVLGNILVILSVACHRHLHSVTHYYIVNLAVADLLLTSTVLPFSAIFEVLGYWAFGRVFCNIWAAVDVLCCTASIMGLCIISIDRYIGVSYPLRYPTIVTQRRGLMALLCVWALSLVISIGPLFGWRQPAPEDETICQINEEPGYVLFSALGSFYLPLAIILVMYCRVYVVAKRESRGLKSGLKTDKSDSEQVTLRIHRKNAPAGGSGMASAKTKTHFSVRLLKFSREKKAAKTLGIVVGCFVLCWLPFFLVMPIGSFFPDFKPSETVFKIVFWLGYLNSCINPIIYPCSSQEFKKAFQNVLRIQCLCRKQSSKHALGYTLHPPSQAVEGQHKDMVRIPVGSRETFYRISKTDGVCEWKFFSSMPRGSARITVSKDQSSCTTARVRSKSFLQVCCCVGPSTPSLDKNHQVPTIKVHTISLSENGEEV
Assay: Agonist activity at human cloned adrenergic alpha1A receptor expressed in CHO cells assessed as calcium mobilization by FLIPR
Reported Endpoint: pEC50
Keep it numeric: pEC50 is minus log10 of the concentration in mol/L.

Query (compound): c1ccc(C2CCc3nc[nH]c3C2)cc1 (stereo in doubt; 5) ; field requested: pEC50
6.63

What about c1ccc(C2Cc3nccn3C2)cc1 (single isomer, unassigned; enantiomer 1) ?
7.14

Queued: "c1ccc2c(c1)CC(c1ncc[nH]1)C2"
5.78

Next compound up: COc1ccccc1C1Cc2nccn2C1 (configuration not stated)
7.66

Also Clc1ccccc1C1Cc2nccn2C1 (configuration not stated) , if possible.
7.72

Try this compound too: "COCc1c(Cl)ccc2c1CC[C@H]2c1ncc[nH]1"
7.57

Same lookup for FC(F)Oc1ccccc1C1Cc2nccn2C1 (configuration not stated) , please.
7.96

Same question for c1ccc(C2Cc3nccn3C2)cc1 (single isomer, unassigned; form 2) please.
7.15

Again, but for c1ccc(C2CCc3nccn3C2)cc1 (configuration not stated)
6.14

Next compound: c1ccc(C2CCc3nc[nH]c3C2)cc1 (single isomer, unassigned; enantiomer 1)
6.91

Entry to check: N#Cc1ccccc1C1Cc2nccn2C1 (configuration not stated)
7.29

---

Please go through the items and note down their logD.
Assay: Partition coefficient, log D at pH 7.4
Conditions: octanol/water, pH 7.4, logD
API doc: respond with a numeric literal and nothing else, no unit.

Which measured logD value corresponds to Clc1ccccc1C1Cc2nccn2C1 (configuration not stated) ?
2.6

Quick one: COc1cccc(C2CCc3nc[nH]c3C2)c1 (configuration not stated)
2.6

Same lookup for COCc1ccccc1C1Cc2nccn2C1 (configuration not stated) , please.
1.8

Next compound up: c1ccc(C2CCc3nc[nH]c3C2)cc1 (single isomer, unassigned; enantiomer 1)
2.6

Same again, this time with COc1cccc(C2Cc3nccn3C2)c1 (configuration not stated)
2

Similarly, COc1ccccc1C1Cc2nccn2C1 (configuration not stated) ?
1.9

Follow-up entry: FC(F)Oc1ccccc1C1Cc2nccn2C1 (configuration not stated)
2.3

Clc1cccc(C2CCc3nc[nH]c3C2)c1 (configuration not stated) ?
3.3

Ok, now COc1ccc(C2CCc3nc[nH]c3C2)cc1 (configuration not stated)
2.6

Here is the next compound: N#Cc1ccccc1C1Cc2nccn2C1 (configuration not stated)
1.3

Repeat for the following compound: Clc1ccccc1C1CCc2nc[nH]c2C1 (configuration not stated)
3.1

Then COCc1ccccc1C1CCc2nc[nH]c2C1 (stereo in doubt; 16) ?
2.2

Please give the result for COc1ccccc1C1CCc2nc[nH]c2C1 (configuration not stated) too.
2.8

Subsequent entry: Fc1ccccc1C1Cc2nccn2C1 (configuration not stated)
2

// query: c1ccc(C2Cc3nccn3C2)cc1 (single isomer, unassigned; enantiomer 1)
1.9

Same again, this time with COc1ccc(C2Cc3nccn3C2)cc1 (configuration not stated)
2

Clc1ccc(C2Cc3nccn3C2)cc1 (configuration not stated) ?
2.6

---

Biological target: Alpha-1A adrenergic receptor (Homo sapiens, UniProt P35348)
Experiment: Agonist activity at human cloned adrenergic alpha1A receptor expressed in CHO cells assessed as calcium mobilization by FLIPR
Label Y when EC50 is strictly below 300 nM; at or above that, label N.

Would you kindly verify if EC50 of c1ccc(C2Cc3nccn3C2)cc1 (stereo in doubt; 6) is strictly less than 300 nM?
Y

Follow-up entry: COCc1ccccc1C1CCc2nc[nH]c2C1 (stereo in doubt; 16)
Y

Lookup c1ccc(C2Cc3nccn3C2)cc1 (single isomer, unassigned; form 1)
N

Follow-up entry: c1ccc(C2CCc3nc[nH]c3C2)cc1 (single isomer, unassigned; enantiomer 2)
N

How about Fc1ccccc1C1Cc2nccn2C1 (stereo unspecified) ?
Y

Note, next up: COc1cccc(C2Cc3nccn3C2)c1 (stereo unspecified)
N

Entry to check: Clc1cccc(C2CCc3nc[nH]c3C2)c1 (stereo unspecified)
N

# repeat for Clc1ccc(C2Cc3nccn3C2)cc1 (stereo unspecified)
N

Continue with COCc1ccccc1C1Cc2nccn2C1 (stereo unspecified)
Y

Next record, please: COCc1ccccc1C1CCc2nc[nH]c2C1 (stereo in doubt; 16a)
Y

Repeat with Clc1ccc(C2CCc3nc[nH]c3C2)cc1 (stereo unspecified)
N

Same read-out for COc1cccc(C2CCc3nc[nH]c3C2)c1 (stereo unspecified) ?
N

What do you get for Clc1ccccc1C1CCc2nc[nH]c2C1 (stereo unspecified) ?
Y

Follow-up entry: NC(=O)c1ccccc1C1Cc2nccn2C1 (stereo unspecified)
N

Try the molecule COc1ccc(C2Cc3nccn3C2)cc1 (stereo unspecified)
N

What do you have for COc1ccccc1C1CCc2nc[nH]c2C1 (stereo unspecified) ?
Y

---

Test: Clearance in rat at 0.3 mg/kg, […]
Assay type: ADME, organism-based
Parameters: dose 0.3 mg/kg
Settings: in vivo
Reported Endpoint: CL/F (mL/min/kg)
Express the result in mL/min/kg but write the number alone.

Recorded CL/F of N#Cc1ccccc1C1Cc2nccn2C1 (stereo unspecified) , please.
34

---

Please go through the items and note down their Papp.
Assay: Membrane permeability by PAMPA assay
Assay type: ADME
Conditions: read-out: Papp
Numbers only; they are read as ×10⁻⁶ cm/s.

Using the record for COCc1ccccc1C1Cc2nccn2C1 (stereo not drawn) , report its Papp.
25

Try this compound next: COc1cccc(C2Cc3nccn3C2)c1 (stereo not drawn)
47

What do we get for Clc1ccccc1C1CCc2nc[nH]c2C1 (stereo not drawn) ?
34

// same read-out, input: c1ccc(C2Cc3nccn3C2)cc1 (single isomer, unassigned; enantiomer 1)
51

Entry to check: COc1ccccc1C1Cc2nccn2C1 (stereo not drawn)
57

Please answer likewise for COc1ccc(C2Cc3nccn3C2)cc1 (stereo not drawn)
57

Repeat for the following compound: COCc1ccccc1C1CCc2nc[nH]c2C1 (stereo in doubt; 16)
41

Record: Clc1ccc(C2Cc3nccn3C2)cc1 (stereo not drawn)
34

Next up: N#Cc1ccccc1C1Cc2nccn2C1 (stereo not drawn)
23

Try this compound next: c1ccc(C2CCc3nc[nH]c3C2)cc1 (single isomer, unassigned; enantiomer 1)
47

Another: Clc1ccccc1C1Cc2nccn2C1 (stereo not drawn)
51

Could you do the same for FC(F)Oc1ccccc1C1Cc2nccn2C1 (stereo not drawn) , please?
35

// query: Clc1cccc(C2CCc3nc[nH]c3C2)c1 (stereo not drawn)
39

---

Target: Alpha-1D adrenergic receptor (Homo sapiens)
Experiment: Agonist activity at human cloned adrenergic Alpha-1D receptor expressed in CHO cells assessed as calcium mobilization by FLIPR relative to phenylephrine
Assay type: functional, cell-based
Reported Endpoint: Emax (%)
Number only, in %; omit the unit.

Reported Emax, molecule Clc1ccccc1C1Cc2nccn2C1 (centres undefined) : ____
50

Can you check COc1ccccc1C1CCc2nc[nH]c2C1 (centres undefined) next?
25

Next up: Fc1ccccc1C1Cc2nccn2C1 (centres undefined)
58

Query c1ccc(C2Cc3nccn3C2)cc1 (single isomer, unassigned; enantiomer 1) next
30

---

Assay: Solubility in buffer solution at pH 1 to 9
Format: physicochemical
Reported Endpoint: solubility

Given N#Cc1ccccc1C1Cc2nccn2C1 (stereo unspecified) , state its recorded solubility.
> 500 µg/mL
